Below, each entry is listed alongside its reported MIC.
Test system: P. aeruginosa E411-17
Experiment description: microbe, parasite or virus in culture
Type: cell-based, Pseudomonas aeruginosa
Experimental context: E411-17; read-out: MIC P. aeruginosa E411-17
Square brackets hold non-standard residues; d marks the D form. Peptide text beside a SMILES is read from it.
Reported property: MIC

[
  {
    "Compound": "CC(C)C[C@H](NC(=O)[C@H](CC(C)C)NC(=O)[C@H](CCCCN)NC(=O)[C@H](CC(C)C)NC(=O)CNC(=O)[C@H](CC(C)C)NC(=O)[C@H](CO)NC(=O)[C@H](CC(C)C)NC(=O)[C@H](CC(C)C)NC(=O)[C@H](CC(C)C)NC(=O)[C@H](CO)NC(=O)[C@H](CC(C)C)NC(=O)CN)C(N)=O [DFT503, GLSLLLSLGLKLL] (H-GLSLLLSLGLKLL-NH2; N-terminus and C-terminus assumed)",
    "Test target": "P. aeruginosa E411-17",
    "Result": ">50 µM"
  },
  {
    "Compound": "CC(C)C[C@@H](NC(=O)[C@@H](Cc1c[nH]c2ccccc12)NC(=O)[C@@H](Cc1c[nH]c2ccccc12)NC(=O)[C@H](N)Cc1c[nH]c2ccccc12)C(=O)N[C@H](CCCNC(=N)N)C(=O)N[C@H](CCCNC(=N)N)C(=O)N[C@H](CCCNC(=N)N)C(=O)N[C@H](Cc1c[nH]c2ccccc12)C(N)=O [D-horine] (H-[dW][dW][dW][dL][dR][dR][dR][dW]-NH2; N-terminus and C-terminus assumed)",
    "Test target": "P. aeruginosa E411-17",
    "Result": "32 µM"
  },
  {
    "Compound": "CC(C)C[C@H](NC(=O)[C@H](Cc1c[nH]c2ccccc12)NC(=O)[C@H](Cc1c[nH]c2ccccc12)NC(=O)[C@@H](N)Cc1c[nH]c2ccccc12)C(=O)N[C@@H](CCCNC(=N)N)C(=O)N[C@@H](CCCNC(=N)N)C(=O)N[C@@H](CCCNC(=N)N)C(=O)N[C@@H](Cc1c[nH]c2ccccc12)C(N)=O [Horine, WWWLRRRW] (H-WWWLRRRW-NH2; N-terminus and C-terminus assumed)",
    "Test target": "P. aeruginosa E411-17",
    "Result": ">32 µM"
  }
]
